Molecular target: FGFR3 (UniProt P22607)
Sequence (P22607 whole entry, looked up): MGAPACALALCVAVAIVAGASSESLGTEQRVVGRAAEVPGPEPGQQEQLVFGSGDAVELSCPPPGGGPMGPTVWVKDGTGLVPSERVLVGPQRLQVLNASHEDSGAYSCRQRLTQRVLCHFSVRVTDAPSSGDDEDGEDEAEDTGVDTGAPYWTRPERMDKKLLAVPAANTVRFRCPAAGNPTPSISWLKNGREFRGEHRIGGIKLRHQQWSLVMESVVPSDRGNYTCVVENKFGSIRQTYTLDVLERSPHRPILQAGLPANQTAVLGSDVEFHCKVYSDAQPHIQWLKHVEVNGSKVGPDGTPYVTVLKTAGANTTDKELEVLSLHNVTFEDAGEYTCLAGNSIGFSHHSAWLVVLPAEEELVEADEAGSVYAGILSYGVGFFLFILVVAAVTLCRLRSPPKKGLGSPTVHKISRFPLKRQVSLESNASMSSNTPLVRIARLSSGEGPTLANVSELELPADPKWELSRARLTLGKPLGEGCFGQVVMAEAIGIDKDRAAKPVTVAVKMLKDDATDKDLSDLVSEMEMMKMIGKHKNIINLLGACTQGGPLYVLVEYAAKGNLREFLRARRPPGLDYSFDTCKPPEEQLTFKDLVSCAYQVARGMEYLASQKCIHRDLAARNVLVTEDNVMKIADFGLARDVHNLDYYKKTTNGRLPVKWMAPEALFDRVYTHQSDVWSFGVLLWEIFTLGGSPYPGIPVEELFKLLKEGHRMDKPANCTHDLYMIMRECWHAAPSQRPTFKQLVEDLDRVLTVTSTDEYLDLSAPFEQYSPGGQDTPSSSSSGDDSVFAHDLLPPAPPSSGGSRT
Experiment: phosphorylation enrichment, bacterial display (enrichment ratio); higher = better substrate or ligand; peptides without Tyr show the background;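 further: 11-residue human phosphosite peptides and single-mutation variants displayed on the E. coli surface, counted by deep sequencing, each peptide's frequency after selection divided by its frequency in the unselected input library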;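 further: frequency after pTyr selection over input frequency; kinase dosed for 20-30% of maximal phosphorylation in three min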
Task for the reader: assign each of the following sequences its reported phosphorylation enrichment.
Answers are plain numbers.

The cases that follow already have their phosphorylation enrichment on record.
# residue string, attribute measured, observed
measured = [
    ("QMQAAYQKVVA [HBD_Y131]", "phosphorylation enrichment", 0.72),
    ("VIKDKYPKARF [APTX_Y209_YF]", "phosphorylation enrichment", 0.504),
    ("QNTGGYYDLYG [PTPN11_Y62_D61G]", "phosphorylation enrichment", 10),
]

# batch size: 2; output phosphorylation enrichment per entry
1. CTTIHQNFMCN [TP53_Y234_Y234Q_YF]
2. CTTIHYNFTCN [TP53_Y234_M237T_YF]

Output:
1. 0.614
2. 0.593

###

Task for the reader: assign each of the following sequences its reported phosphorylation enrichment.
Tested on: AncSZ
Experiment: phosphorylation enrichment, bacterial display (enrichment ratio); higher = better substrate or ligand; peptides without Tyr show the background

# residue string, phosphorylation enrichment
records = [
    ("EEGNPSYSSAR [MCCC2_Y520_Y520S]", 0.962),
    ("LLQKTYNYNVL [SLC4A1_Y553_P548L]", 1.26),
    ("SMAKFYASEIA [ACADSB_Y373_YF]", 0.686),
    ("RRNTFYASIAK [ACADM_Y353_YF]", 0.605),
    ("GDFLSYREFHS [ERBIN_Y1107_YF]", 0.625),
    ("RSLLQYGGSAN [ANK1_Y624]", 0.964),
    ("RLLRGYDQSAF [HLA-C_Y137_YF]", 0.669),
    ("NESVDYRATFP [MET_Y1003]", 0.681),
]

# batch size: 4; output phosphorylation enrichment per entry
1. IQVNAYFSPIH [ADSL_Y432_D430N]
2. IHHIDYFKKTT [FGFR1_Y653_YF]
3. DEEEEYEFMNR [ERBB3_Y1197_D1194E_YF]
4. KRYRIYHLATS [BRCA2_Y3009]

Output:
1: 1.76; 2: 0.718; 3: 1.16; 4: 0.564

# batch size: 2; output phosphorylation enrichment per entry
1. AIDVGYRLIDC [AKR1B1_Y40_H42L]
2. MTFQNYRQALF [FAM20C_Y279_G280R]

Output:
[0.874, 0.909]

# batch size: 2; output phosphorylation enrichment per entry
1. RSSKMYFKTRS [LPL_Y329_L330F]
2. DPYHVYIKNHV [KCNE3_Y95_R99H]

Output:
1.2
0.845

# batch size: 2; output phosphorylation enrichment per entry
1. ATRKAYGQALA [TKT_Y321]
2. TFFQMYDKGLV [IARS2_Y231_YF]

Output:
0.468
0.862

###

Target: EPHB1 (UniProt P54762)
Sequence (P54762 whole entry, looked up): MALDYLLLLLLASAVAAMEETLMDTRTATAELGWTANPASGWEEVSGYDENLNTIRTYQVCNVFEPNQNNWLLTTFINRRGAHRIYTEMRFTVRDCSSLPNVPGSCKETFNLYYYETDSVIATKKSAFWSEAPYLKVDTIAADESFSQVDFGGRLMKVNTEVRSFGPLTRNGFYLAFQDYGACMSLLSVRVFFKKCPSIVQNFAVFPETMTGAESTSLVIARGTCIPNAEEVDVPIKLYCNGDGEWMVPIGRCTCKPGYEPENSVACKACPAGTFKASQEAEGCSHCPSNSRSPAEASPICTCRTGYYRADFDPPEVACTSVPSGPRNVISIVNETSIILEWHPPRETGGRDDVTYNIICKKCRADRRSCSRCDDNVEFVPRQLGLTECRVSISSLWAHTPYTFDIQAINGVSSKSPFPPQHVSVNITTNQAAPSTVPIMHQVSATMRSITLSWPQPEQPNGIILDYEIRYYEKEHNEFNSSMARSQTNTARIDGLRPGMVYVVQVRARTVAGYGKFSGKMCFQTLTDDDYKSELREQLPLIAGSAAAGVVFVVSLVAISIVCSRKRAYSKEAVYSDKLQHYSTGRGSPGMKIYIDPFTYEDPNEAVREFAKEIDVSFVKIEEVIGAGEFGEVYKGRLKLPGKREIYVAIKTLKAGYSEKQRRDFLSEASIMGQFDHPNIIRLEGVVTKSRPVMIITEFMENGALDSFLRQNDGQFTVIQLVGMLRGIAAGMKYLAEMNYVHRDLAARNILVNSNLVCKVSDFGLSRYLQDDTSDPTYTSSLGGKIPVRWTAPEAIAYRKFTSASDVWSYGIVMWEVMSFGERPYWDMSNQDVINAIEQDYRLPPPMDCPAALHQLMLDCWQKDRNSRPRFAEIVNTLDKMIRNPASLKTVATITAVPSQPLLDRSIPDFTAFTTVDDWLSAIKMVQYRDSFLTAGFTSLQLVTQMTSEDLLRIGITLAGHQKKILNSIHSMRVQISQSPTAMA
Assay: phosphorylation enrichment, bacterial display (enrichment ratio); higher = better substrate or ligand; peptides without Tyr show the background
Task for the reader: assign each of the following sequences its reported phosphorylation enrichment.

The cases that follow already have their phosphorylation enrichment on record.
# residue string, phosphorylation enrichment
measured = [
    ("PEADKYRLPFA [FGG_Y300_T303P_YF]", 0.61),
    ("HNLDYYKQTTN [FGFR3_Y648_K650Q]", 0.786),
    ("MNKNAYHNVTA [ST3GAL6_Y306]", 0.686),
    ("QDDYSYPSRQM [LDLR_Y847_G844D]", 3.54),
]

# batch size: 8; output phosphorylation enrichment per entry
1. RGKDNYETSQL [SPP1_Y225_S224N]
2. AVAFVYYKSIG [ADGRL4_Y301]
3. CTTIHYNFMCN [TP53_Y234_Y236F]
4. FPCSVYMPDEW [INSR_Y1011_V1012M]
5. YSKTQYNQVPS [CXADR_Y318]
6. GPIIRYDLGGA [CYP11B1_Y81_F79I]
7. NDLMEYPKQHG [ASS1_Y163_A164P]
8. QITQVCGFYDE [PPP2CA_Y127_Y127C]

Output:
1. 0.662
2. 0.615
3. 0.428
4. 0.6
5. 0.351
6. 0.585
7. 0.46
8. 1.1

# batch size: 8; output phosphorylation enrichment per entry
1. TGNGFYFRVFS [MYBPC3_Y1136_I1131T_YF]
2. VTQEPYELYCE [CBL_Y368_Q367P]
3. ILGRFYETSSI [PAX2_Y73_G76S_YF]
4. ALAHKCHGGGG [HBB_Y146_Y146C]
5. AHAGEYGAVAL [HBA1_Y25_E28V]
6. KVWGIYDCQQP [CYP3A7_Y75]
7. NGSKAYAFVHF [PABPC5_Y147_G146A_YF]
8. AQRKLYRNVML [ZNF569_Y33]

Output:
0.65
0.763
0.516
0.473
0.346
6.6
0.586
0.412
